# System: M. tb H37Rv
# method: MIC determination against M. tb H37Rv (MIC-MABA)
# Format: cell-based, Mycobacterium tuberculosis
# settings: M. tb H37Rv; 7H9 broth; 10 days exposure; MIC = lowest concentration inhibiting fluorescence by 90%
Please go through the items and note down their M. tb H37Rv: MIC-MABA.
Give the value in µg/mL but do not write µg/mL after it.

Q: Tell me reported M. tb H37Rv: MIC-MABA for CC1CCC(NC(=O)c2cc3sc(-c4ccccc4)nc3[nH]2)CC1 (single isomer, unassigned) [MPL-433B] , tested with M. tb H37Rv.
Result: 0.69

Q: Tell me reported M. tb H37Rv: MIC-MABA for COc1nc2[nH]c(C(=O)NC3CCC[Si](C)(C)CC3)cc2s1 (single isomer, unassigned) [MPL-395B] , tested with M. tb H37Rv.
Result: 0.999

Q: Tell me reported M. tb H37Rv: MIC-MABA for COc1nc2[nH]c(C(=O)NC3CCC[Si](C)(C)CC3)cc2s1 (single isomer, unassigned) [MPL-395A] , tested with M. tb H37Rv.
Result: 0.030

Q: Tell me reported M. tb H37Rv: MIC-MABA for C[Si]1(C)CCCC(NC(=O)c2cc3sc(-c4ccccc4)nc3[nH]2)CC1 (single isomer, unassigned) [MPL-357A] , tested with M. tb H37Rv.
Result: 0.007

Q: Tell me reported M. tb H37Rv: MIC-MABA for C[Si]1(C)CCCC(NC(=O)c2cc3sc(-c4ccccc4)nc3[nH]2)CC1 (single isomer, unassigned) [MPL-357B] , tested with M. tb H37Rv.
Result: 0.110
